- MEASURED_TARGET: T1, human CD112R (human, UniProt Q6DKI7 41-326)
- T1 construct: also called huCD112R; PVRIG
- T1 sequence: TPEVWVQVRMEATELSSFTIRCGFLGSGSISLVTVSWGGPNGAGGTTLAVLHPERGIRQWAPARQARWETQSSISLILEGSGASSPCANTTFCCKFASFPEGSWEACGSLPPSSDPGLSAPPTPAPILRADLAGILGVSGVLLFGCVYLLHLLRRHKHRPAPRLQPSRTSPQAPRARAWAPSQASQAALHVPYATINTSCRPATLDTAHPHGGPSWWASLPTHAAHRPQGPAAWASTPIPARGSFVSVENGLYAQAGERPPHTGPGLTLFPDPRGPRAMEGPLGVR
- EXPERIMENTAL_PROTOCOL: flow cytometry, titration on activated primary human T cells
hey, just use rule met if measured EC50 is less than 0.09 µg/mL, otherwise rule not met

- BINDER: "24F1 (antibody, V domains shown, Fully human XenoMouse antibody, tested as hybridoma supernatant) VH: EVQLVESGGGLVQPGGSLRLSCAASGFTFSRDDMHWVRQATGKGLEWVAGIDNAGDTYYPGSVKGRFTISRENAKNSLYLQMNSLRAGDTAIYYCAREGQWPYGMDVWGQGTTVTVSS VL: DIQMTQSPSSLSASVGDRVTITCRASQGIRNDLGWYQQKPGKAPKRLIYSASSLQSGVSSRFSGSGSGTEFTLTISSLQPEDFATYYCLQSNSYPLTFGGGTKVEIKR"
  GROUP: "rule met"
- BINDER: "1E1 (antibody, V domains shown, Fully human XenoMouse antibody, tested as hybridoma supernatant or purified mAb; also called 18C10) VH: QVQLVQSGAEVKKPGASVKVSCQASGYTFTDYYIYWVRQAPGQGLEWMGWINPNSGGTNYAQKFQGRVTMTRDTSISTAYIELSRLRSDDTAVYYCAREDNFNGMDVWGQGTTVTVSS VL: DIQMTQSPSSLSASVGDRVTITCRASQGIRNDLGWYQQKPGKAPKRLIYAASSLQSGVPSRFSGSGSGTEFTLTISSLQPEDFATYYCLQLNSYPLTFGGGTKVEIKR"
  GROUP: "rule met"
- BINDER: "31B3 (antibody, V domains shown, Fully human XenoMouse antibody, tested as hybridoma supernatant) VH: QVQLVESGGGVVQPGRSLRLSCAASGFTFSYYGMHWVRQAPGKGLEWVALISYDGNNKYYVDSVRGRFTISRDNSKNTLSLQMNSLRAEDTAVYYCAREIFGESYYYGMDVWGQGTTVTVSS VL: EIVMTQSPATLSVSPGERATLSCRASQSISRNLAWYQQKPGQAPRLLIYGASIRATVIPARFSGSGSGTEFTLTISSLQSEDFAIYYCQQYNNWMCSFGQGTKLEIK"
  GROUP: "rule not met"
- BINDER: "29E10 (antibody, V domains shown, Fully human XenoMouse antibody, tested as hybridoma supernatant) VH: EVQLVESGGGLVQPGGSLRLSCAASGFTFRNYDMHWVRQVPGKGLEWVSDIGNSGETYYLGSVKGRFTISRENAKNSLYLQMNSLRAGDTAVYYCVREEFGYGMDVWGQGTTVTVSS VL: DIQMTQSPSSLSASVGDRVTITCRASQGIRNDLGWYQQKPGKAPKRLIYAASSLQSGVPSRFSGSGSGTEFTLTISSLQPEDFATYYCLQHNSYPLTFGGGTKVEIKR"
  GROUP: "rule met"
